# test-details: Half life in mouse blood at 5 mg/kg, po by HPLC/MS/MS analysis
# Assay type: ADME, organism-based
measured-parameter: half-life (h)
Note: unit h is implicit; provide only the numeric part.

Query: Using known records, supply half-life for O=C(O)c1ccc(CN2CCC(CN[C@@H]3C[C@H]3c3ccccc3)CC2)cc1
Reply: 1.9

* * *

In this section we review reported EC50 values for a set of compounds.
# experimental-system: Kappa-type opioid receptor (Homo sapiens)
# Sequence (P41145 whole entry): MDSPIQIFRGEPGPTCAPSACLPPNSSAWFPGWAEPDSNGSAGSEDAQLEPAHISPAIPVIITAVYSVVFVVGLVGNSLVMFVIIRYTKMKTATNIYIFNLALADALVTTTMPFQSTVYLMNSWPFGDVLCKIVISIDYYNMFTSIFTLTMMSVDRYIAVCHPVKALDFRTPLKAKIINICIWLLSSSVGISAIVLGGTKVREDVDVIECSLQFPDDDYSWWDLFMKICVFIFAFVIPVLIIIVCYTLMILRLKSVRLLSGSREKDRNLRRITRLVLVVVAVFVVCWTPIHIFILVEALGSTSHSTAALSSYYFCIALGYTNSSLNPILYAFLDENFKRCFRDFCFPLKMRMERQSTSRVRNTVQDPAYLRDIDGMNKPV
# test-details: Antagonist activity at KOR (unknown origin)
# Type: functional

O=C(O)c1ccc(CN2CCC(CN[C@@H]3C[C@H]3c3ccccc3)CC2)cc1 [GSK2879552]	> 100 µM

Could you now consider this next compound?
Query: Using known records, supply EC50 for c1ccc([C@@H]2C[C@H]2NC2CCNCC2)cc1
Reply: > 100 µM
